# TARGET ENTITY: 5-hydroxytryptamine receptor 4 (Rattus norvegicus, UniProt Q62758)
# Sequence (Q62758 whole entry): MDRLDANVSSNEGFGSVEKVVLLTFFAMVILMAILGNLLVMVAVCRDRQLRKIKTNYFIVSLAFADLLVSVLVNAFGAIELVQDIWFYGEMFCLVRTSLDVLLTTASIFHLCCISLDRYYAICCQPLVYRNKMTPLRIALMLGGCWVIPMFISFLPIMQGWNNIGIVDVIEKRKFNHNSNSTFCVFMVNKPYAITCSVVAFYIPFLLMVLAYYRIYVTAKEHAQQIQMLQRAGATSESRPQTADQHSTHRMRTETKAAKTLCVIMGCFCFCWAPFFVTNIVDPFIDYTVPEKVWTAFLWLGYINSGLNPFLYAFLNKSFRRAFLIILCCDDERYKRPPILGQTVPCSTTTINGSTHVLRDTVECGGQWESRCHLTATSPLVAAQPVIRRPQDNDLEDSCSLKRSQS
# RUN DESCRIPTION: Agonist activity at 5-HT4 receptor in rat esophageal thoracic muscularis mucosae assessed as carbachol-induced contraction
pEC50: −log10 of the molar value.
So basically: pEC50 at 6 or higher? That is Satisfied. Lower than 6? That is Not satisfied.

# COMPOUND, CLASSIFICATION
records = [
    ("COc1cc(N)c(Cl)cc1C(=O)N[C@H]1CCN(CC2CCN(C(=O)C(C)C)CC2)C[C@H]1OC (racemic)", "Satisfied"),
    ("COc1cc(N)c(Cl)cc1C(=O)N[C@H]1CCN(CCC(=O)N2CCC(Cc3ccccc3)CC2)C[C@H]1OC (relative stereo)", "Not satisfied"),
    ("COc1cc(N)c(Cl)cc1C(=O)N[C@H]1CCN(CC2CCN(C(=O)C(C)(C)C)CC2)C[C@H]1OC (relative stereo)", "Satisfied"),
    ("CCC(=O)N1CCCC(CN2CC[C@H](NC(=O)c3cc(Cl)c(N)cc3OC)[C@H](OC)C2)C1 (relative stereo)", "Not satisfied"),
    ("COc1cc(N)c(Cl)cc1C(=O)N[C@H]1CCN(CCCn2ccnc2)C[C@H]1OC (relative stereo)", "Satisfied"),
    ("CCC(=O)N1CCC(CN2CC[C@H](NC(=O)c3cc(Cl)c(N)cc3OC)[C@H](OC)C2)CC1 (relative stereo)", "Satisfied"),
]

* * *

Each entry below lists one item and its recorded Tmax value.
# RUN DESCRIPTION: Tmax in rat at 5 mg/kg, po
# Format: ADME, organism-based
# ASSAY CONTEXT: in vivo

# COMPOUND, Tmax / min
data = [
    ("COc1cc(N)c(Cl)cc1C(=O)N[C@H]1CCN(CC2CCN(C(=O)C(C)(C)C)CC2)C[C@H]1OC (relative stereo)", 15),
    ("COc1cc(N)c(Cl)cc1C(=O)N[C@H]1CCN(CCCOc2ccc(F)cc2)C[C@H]1OC (relative stereo) [REL-CISAPRIDE]", 15),
    ("COc1cc(N)c(Cl)cc1C(=O)N[C@H]1CCN(CC2CCN(C(=O)C(C)C)CC2)C[C@H]1OC (racemic)", 15),
]

* * *

# RUN DESCRIPTION: Solubility of the compound in distilled water
# Assay type: physicochemical
MEASURED PROPERTY: solubility

# TEST SMILES, MEASURED PROPERTY, RESULT
rows = [
    ("COc1cc(N)c(Cl)cc1C(=O)N[C@H]1CCN(CC2CCN(C(=O)C(C)C)CC2)C[C@H]1OC.O=C(O)CC(O)(CC(=O)O)C(=O)O", "solubility", "> 30 mg/mL"),
    ("Br.COc1cc(N)c(Cl)cc1C(=O)N[C@H]1CCN(CC2CCN(C(=O)C(C)C)CC2)C[C@H]1OC", "solubility", "< 5 mg/mL"),
    ("COc1cc(N)c(Cl)cc1C(=O)N[C@H]1CCN(CC2CCN(C(=O)C(C)C)CC2)C[C@H]1OC.O=C(O)/C=C\\C(=O)O", "solubility", "> 10 mg/mL"),
    ("COc1cc(N)c(Cl)cc1C(=O)N[C@H]1CCN(CC2CCN(C(=O)C(C)C)CC2)C[C@H]1OC.Cl", "solubility", "> 15 mg/mL"),
    ("COc1cc(N)c(Cl)cc1C(=O)N[C@H]1CCN(CC2CCN(C(=O)C(C)C)CC2)C[C@H]1OC.O=C(O)C(O)C(O)C(=O)O", "solubility", "> 30 mg/mL"),
    ("COc1cc(N)c(Cl)cc1C(=O)N[C@H]1CCN(CC2CCN(C(=O)C(C)C)CC2)C[C@H]1OC.CS(=O)(=O)O", "solubility", "> 10 mg/mL"),
]
